system_name: rNav1.2 sodium channels (Rattus norvegicus)
Construct: host or cells: HEK-293
Sequence (P04775 whole entry): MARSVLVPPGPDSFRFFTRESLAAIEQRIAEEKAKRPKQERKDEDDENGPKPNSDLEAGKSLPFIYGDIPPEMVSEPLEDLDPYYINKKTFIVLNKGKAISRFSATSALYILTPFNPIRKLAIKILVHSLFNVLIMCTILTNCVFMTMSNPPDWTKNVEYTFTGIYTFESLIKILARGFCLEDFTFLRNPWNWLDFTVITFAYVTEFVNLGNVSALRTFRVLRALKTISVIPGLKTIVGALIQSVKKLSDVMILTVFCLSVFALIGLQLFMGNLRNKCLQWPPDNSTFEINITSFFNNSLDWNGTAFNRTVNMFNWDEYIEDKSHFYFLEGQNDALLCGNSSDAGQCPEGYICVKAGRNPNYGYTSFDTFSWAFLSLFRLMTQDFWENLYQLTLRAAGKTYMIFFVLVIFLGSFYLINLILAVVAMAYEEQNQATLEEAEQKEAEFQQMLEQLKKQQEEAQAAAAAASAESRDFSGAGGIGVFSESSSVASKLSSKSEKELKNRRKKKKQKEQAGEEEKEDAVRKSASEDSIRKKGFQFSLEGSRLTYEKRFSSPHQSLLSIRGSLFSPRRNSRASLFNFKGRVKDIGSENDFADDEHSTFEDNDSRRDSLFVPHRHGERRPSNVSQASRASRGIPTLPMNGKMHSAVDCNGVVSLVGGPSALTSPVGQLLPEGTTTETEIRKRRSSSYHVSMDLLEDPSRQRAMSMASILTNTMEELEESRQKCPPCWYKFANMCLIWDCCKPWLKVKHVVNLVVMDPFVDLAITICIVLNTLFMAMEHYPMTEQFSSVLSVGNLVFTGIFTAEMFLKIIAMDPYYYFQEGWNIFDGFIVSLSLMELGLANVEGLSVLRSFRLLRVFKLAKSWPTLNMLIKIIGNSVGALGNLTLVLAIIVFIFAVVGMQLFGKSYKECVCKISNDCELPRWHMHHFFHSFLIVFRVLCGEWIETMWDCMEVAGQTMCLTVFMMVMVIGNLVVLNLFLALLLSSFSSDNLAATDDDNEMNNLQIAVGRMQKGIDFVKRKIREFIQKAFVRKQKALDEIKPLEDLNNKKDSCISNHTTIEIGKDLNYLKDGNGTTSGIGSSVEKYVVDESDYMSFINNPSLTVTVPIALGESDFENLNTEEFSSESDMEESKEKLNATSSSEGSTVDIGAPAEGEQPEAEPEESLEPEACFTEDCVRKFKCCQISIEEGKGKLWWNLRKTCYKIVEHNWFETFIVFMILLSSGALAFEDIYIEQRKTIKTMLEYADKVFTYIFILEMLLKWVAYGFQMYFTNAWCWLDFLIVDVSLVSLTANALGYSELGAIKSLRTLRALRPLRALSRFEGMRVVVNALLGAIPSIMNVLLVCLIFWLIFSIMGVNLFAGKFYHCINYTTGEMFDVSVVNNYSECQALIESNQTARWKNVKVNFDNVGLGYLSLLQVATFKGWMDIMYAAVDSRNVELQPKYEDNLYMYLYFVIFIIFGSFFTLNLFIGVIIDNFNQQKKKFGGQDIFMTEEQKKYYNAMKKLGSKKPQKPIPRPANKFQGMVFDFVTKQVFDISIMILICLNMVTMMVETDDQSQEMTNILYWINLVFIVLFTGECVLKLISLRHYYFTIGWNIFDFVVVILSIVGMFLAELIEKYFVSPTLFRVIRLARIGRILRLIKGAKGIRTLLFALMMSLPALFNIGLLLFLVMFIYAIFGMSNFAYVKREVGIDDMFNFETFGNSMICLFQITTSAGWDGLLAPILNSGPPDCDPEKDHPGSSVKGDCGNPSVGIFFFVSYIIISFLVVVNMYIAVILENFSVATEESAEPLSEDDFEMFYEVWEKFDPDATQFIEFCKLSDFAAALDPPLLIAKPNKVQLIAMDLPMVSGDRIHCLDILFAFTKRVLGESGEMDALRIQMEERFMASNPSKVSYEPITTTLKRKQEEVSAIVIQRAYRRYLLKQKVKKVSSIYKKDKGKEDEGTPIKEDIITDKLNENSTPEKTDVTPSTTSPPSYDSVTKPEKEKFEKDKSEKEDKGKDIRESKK
measurement_description: QPatch automated patch clamp, inhibition of sodium currents evoked by 5 Hz trains at three extracellular pH values
Assay type: cell-based
assay_conditions: pH 7.3/8.6; cc 30 mM
Here, each record is paired with measured log Ratio App Aff data.
Please reply with the number alone, leaving off any unit.

Known results for compounds:
Record CC12CC3CC(C)(C1)CC(N)(C3)C2 [memantine] . Reported log Ratio App Aff: 0.661

What the record says about CCc1nn(CCCN2CCN(c3cccc(Cl)c3)CC2)c(=O)n1CCOc1ccccc1 : log Ratio App Aff is -0.220

Just so you know, measured log Ratio App Aff for Cc1nc2sccn2c(=O)c1CCN1CCC(=C(c2ccc(F)cc2)c2ccc(F)cc2)CC1 came out at -0.772

// log Ratio App Aff lookup, compound = CN(C)CCCN1c2ccccc2Sc2ccc(Cl)cc21 , result: 0.261

Per the records, this compound ( CN(C)CCC=C1c2ccccc2CCc2ccccc21 ) has log Ratio App Aff equal to 0.267

Attention now shifts to the item below.
Per the records, this compound ( Fc1ccc([C@@H]2CCNC[C@H]2COc2ccc3c(c2)OCO3)cc1 ) has log Ratio App Aff equal to 0.349
